- Assay Details: self-splicing fitness, log relative to wild type (ln ratio); higher = more splicing; Tetrahymena group I intron in knt gene, E. coli kanamycin selection, DiMSum; sequences stand for … in CUCUCU…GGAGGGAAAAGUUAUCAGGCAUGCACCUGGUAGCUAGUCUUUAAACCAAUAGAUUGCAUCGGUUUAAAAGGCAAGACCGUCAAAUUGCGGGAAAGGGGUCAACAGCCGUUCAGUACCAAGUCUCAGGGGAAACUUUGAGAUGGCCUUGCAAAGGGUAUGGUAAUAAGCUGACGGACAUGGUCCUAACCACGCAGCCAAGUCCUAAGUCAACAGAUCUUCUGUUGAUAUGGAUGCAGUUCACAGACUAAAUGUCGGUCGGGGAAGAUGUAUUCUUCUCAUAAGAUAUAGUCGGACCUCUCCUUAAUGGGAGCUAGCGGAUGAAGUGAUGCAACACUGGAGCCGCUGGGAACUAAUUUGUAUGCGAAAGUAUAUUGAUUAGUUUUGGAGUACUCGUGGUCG;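 note: selection with 25 µg/mL kanamycin versus none on LB agar overnight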
- Cond: 37 °C
Everything with self-splicing fitness (ln) lower than -1 is rule not met; everything else, including exactly -1, is rule met.

Known results for sequences:
GAGCAGCAAUAUUACGACGC | rule met
CGGCAGCAAUAUUACGCUUC | rule not met
UUCAAGCAAUAUUACGACAC | rule not met

Ask: Entry CACCAGCAAUAUUACGUUUU : is its self-splicing fitness (ln) no less than -1?
Reply: rule not met

Ask: Entry CUUUAGCAAUAUUACGGUUG : is its self-splicing fitness (ln) no less than -1?
Reply: rule met

Ask: Entry ACAGAGCAAUAUUACGUCAA : is its self-splicing fitness (ln) no less than -1?
Reply: rule not met

Ask: Entry AAUAAGCAAUAUUACGGGGA : is its self-splicing fitness (ln) no less than -1?
Reply: rule not met

Ask: Entry UCACAGCAAUAUUACGGUCC : is its self-splicing fitness (ln) no less than -1?
Reply: rule not met

Ask: Entry UAAUAGCAAUAUUACGGUAC : is its self-splicing fitness (ln) no less than -1?
Reply: rule not met
